Target: SIX1-Q177R homeodomain (human, UniProt Q15475 108-198, Q177R)
Sequence: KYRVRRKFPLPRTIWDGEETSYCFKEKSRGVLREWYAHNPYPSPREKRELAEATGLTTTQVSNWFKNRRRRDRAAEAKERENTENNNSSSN
Assay: universal protein binding microarray; Universal all-10-mer PBM (8x60K, AMADID 030236), 300 nM GST-tagged protein, Alexa Fluor 488 anti-GST; buffer, salt, pH and temperature not stated (as in Berger); high values mean tight binding
Conditions: protein: ivt; tags: N-terminal GST; dsDNA, one strand shown
The full ranking holds about 33,000 sequences; the median of “e-score” is about -0.05, and the highest 2% start at about 0.38. Only a selection was taken, and the highest values are over-represented in it overall.
Form field: binding signal (one value per entry).
Quick reminder: number only, in E-score, skip the unit.

Consider the worked cases shown below.
INSERT INTO assay_data (seq_text, reported_measurement) VALUES
  ('ATATGGTG', 0.245),
  ('ACCCCTAA', 0.183),
  ('ACACATGC', 0.176),
  ('AATCTGAC', 0.17),
  ('ACCCCTAG', 0.208);

In: I have this sequence here, CCAACACG , and I need its recorded binding signal.
Out: 0.377

In: # query: binding signal of entry ACACATAT
Out: 0.239

In: For the sequence CCACCTAC , what binding signal is on record?
Out: 0.17

In: Using the record for ACACCTGT , report its binding signal.
Out: 0.46

In: GET /values?readout=binding signal&item= GCGGGGGA
Out: 0.157

In: Data request, read-out binding signal, for ATTGATAC
Out: 0.196

----------
Target: SIX1-Q177R homeodomain (human, UniProt Q15475 108-198, Q177R)
Sequence: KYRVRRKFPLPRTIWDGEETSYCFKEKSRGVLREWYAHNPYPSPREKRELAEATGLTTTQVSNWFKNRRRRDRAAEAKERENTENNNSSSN
Assay: universal protein binding microarray; Universal all-10-mer PBM (8x60K, AMADID 030236), 300 nM GST-tagged protein, Alexa Fluor 488 anti-GST; buffer, salt, pH and temperature not stated (as in Berger); high values mean tight binding
Conditions: protein: ivt; tags: N-terminal GST; dsDNA, one strand shown
Whole data set: some 33,000 sequences, median “e-score” near -0.05, cut for the highest 2% near 0.38. What follows is part of a selection rich in the highest values, with near analogues and random picks from the rest.
READOUT TYPE: binding signal (E-score)
Please reply with the bare figure in E-score and do not write the unit itself.

These recorded examples may help you get a feel for the data.
INSERT INTO assay_data (seq_text, reported_measurement) VALUES
  ('ATACGGTG', 0.276),
  ('TCAGAACA', 0.228),
  ('ACCACGGA', 0.178),
  ('CGAACACC', 0.474),
  ('ACCCGGTA', 0.236);

In: Could you tell me which binding signal is on file for AGAACACT ?
Out: 0.344

In: For the sequence GGAACACC , what binding signal is on record?
Out: 0.474

----------
Molecular target: SIX1-Q177R homeodomain (human, UniProt Q15475 108-198, Q177R)
Sequence: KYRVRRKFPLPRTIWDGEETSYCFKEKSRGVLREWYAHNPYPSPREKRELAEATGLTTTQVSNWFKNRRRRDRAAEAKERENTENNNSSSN
Experiment: universal protein binding microarray; Universal all-10-mer PBM (8x60K, AMADID 030236), 300 nM GST-tagged protein, Alexa Fluor 488 anti-GST; buffer, salt, pH and temperature not stated (as in Berger); high values mean tight binding
Settings: protein: ivt; tags: N-terminal GST; dsDNA, one strand shown
The full ranking holds about 33,000 sequences; the median of “e-score” is about -0.05, and the highest 2% start at about 0.38. Shown is part of a subset that was picked to be rich in the highest values.
READOUT TYPE: binding signal (E-score)
Quick note: give the figure in E-score, leave out the unit.

Below are worked cases with known answers.
INSERT INTO results (seq_text, readout_type, reported_measurement) VALUES
  ('CCCCACAG', 'binding signal', 0.172),
  ('CTGGAGTC', 'binding signal', 0.184),
  ('ACCAGTAC', 'binding signal', 0.151),
  ('GGTGTCGA', 'binding signal', 0.487);

In: Reported binding signal, sequence TCCCGACA : ____
Out: 0.155

In: Name the recorded binding signal for CACGGGAC .
Out: 0.163

In: May I ask what binding signal has been recorded for ATGGGGTG ?
Out: 0.342

In: Need binding signal, item ACTGGCAC
Out: 0.152

In: Entry GTACTCGA : reported binding signal = ?
Out: 0.19

In: Tell me the measured binding signal of ACACACTC , please.
Out: 0.314

In: Sample AGGGGTTC — what was its binding signal?
Out: 0.193

In: Which binding signal reading was recorded for the sequence ACCCGCCC ?
Out: 0.243

In: Need binding signal, item TACTCCGA
Out: 0.211

In: May I ask what binding signal has been recorded for GGGGCGTA ?
Out: 0.159

In: Can you share its binding signal? I mean this sequence: ACGCCCCT
Out: 0.205

In: I have this sequence here, GGAGTCGA , and I need its recorded binding signal.
Out: 0.227

----------
Target: SIX1-Q177R homeodomain (human, UniProt Q15475 108-198, Q177R)
Sequence: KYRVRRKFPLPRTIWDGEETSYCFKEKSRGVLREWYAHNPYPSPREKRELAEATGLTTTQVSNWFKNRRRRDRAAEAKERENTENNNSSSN
Test: universal protein binding microarray; Universal all-10-mer PBM (8x60K, AMADID 030236), 300 nM GST-tagged protein, Alexa Fluor 488 anti-GST; buffer, salt, pH and temperature not stated (as in Berger); high values mean tight binding
Settings: protein: ivt; tags: N-terminal GST; dsDNA, one strand shown
The full ranking holds about 33,000 sequences; the median of “e-score” is about -0.05, and the highest 2% start at about 0.38. The sample holds the highest values, similar sequences and a random draw of the others, so the mix is not that of the screen.
READOUT TYPE: binding signal (E-score)
State just the number; it will be interpreted in E-score.

Would you please look over these solved cases?
INSERT INTO assay_data (seq_text, unit_abbreviation, reported_measurement) VALUES
  ('CGATCCAC', 'E-score', 0.238),
  ('CACCTACG', 'E-score', 0.232),
  ('AGAAAACA', 'E-score', 0.192),
  ('CTCCCCCA', 'E-score', 0.176),
  ('ACACCGAA', 'E-score', 0.469),
  ('TACACAGA', 'E-score', 0.152);

In: Name the recorded binding signal for CGGAACCC .
Out: 0.234

In: # input sequence: CACCTACC ; wanted: its binding signal
Out: 0.267

In: Bench note: what binding signal did CACTCCTC show?
Out: 0.201

In: Query (sequence): AACACAGT ; field requested: binding signal
Out: 0.158

In: Give the measured binding signal of ATACCGAC .
Out: 0.173

In: Can you share its binding signal? I mean this sequence: GGGAACCC
Out: 0.184

In: Which binding signal is listed for GAAAACAC ?
Out: 0.383

In: Could you share which binding signal value was measured for CCGCAACA ?
Out: 0.17

In: // query binding signal value for entry AGAAACAC
Out: 0.408

In: Quick one: binding signal for ACCCCGAT ?
Out: 0.229

In: Consider the sequence CAGGGGTA and give its measured binding signal.
Out: 0.234

In: If you can, please state the reported binding signal value of CACTGAGA .
Out: 0.202

In: Query: binding signal; subject: ACGGATCA
Out: 0.172

----------
Molecular target: SIX1-Q177R homeodomain (human, UniProt Q15475 108-198, Q177R)
Sequence: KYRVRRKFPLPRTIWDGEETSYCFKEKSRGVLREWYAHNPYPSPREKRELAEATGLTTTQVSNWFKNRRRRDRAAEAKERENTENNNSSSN
Assay: universal protein binding microarray; Universal all-10-mer PBM (8x60K, AMADID 030236), 300 nM GST-tagged protein, Alexa Fluor 488 anti-GST; buffer, salt, pH and temperature not stated (as in Berger); high values mean tight binding
Conditions: protein: ivt; tags: N-terminal GST; dsDNA, one strand shown
The full ranking holds about 33,000 sequences; the median of “e-score” is about -0.05, and the highest 2% start at about 0.38. The list comes from a sample in which the highest values are over-represented; it also holds close analogues and randomly drawn sequences.
Entries and their measured binding signal follow.
# number only, unit E-score dropped from output

Here are 2 sequences together with their reported answers.
INSERT INTO assay_data (seq_text, target_entity, readout_type, reported_measurement) VALUES
  ('CACTCATA', 'SIX1-Q177R homeodomain (human, UniProt Q15475 108-198, Q177R)', 'binding signal', 0.195),
  ('GCCGGGTA', 'SIX1-Q177R homeodomain (human, UniProt Q15475 108-198, Q177R)', 'binding signal', 0.197);

Consider now this further sequence.
In: Would you mind telling me what binding signal value was observed for GACGCCAC ?
Out: 0.201
